# system: (H^+ +K^+)-ATPase (Canis lupus familiaris, UniProt P50996)
# Construct: (H^+ +K^+)-ATPase obtained from canine gastric mucosa
# Sequence (P50996 2-1034 limits assumed): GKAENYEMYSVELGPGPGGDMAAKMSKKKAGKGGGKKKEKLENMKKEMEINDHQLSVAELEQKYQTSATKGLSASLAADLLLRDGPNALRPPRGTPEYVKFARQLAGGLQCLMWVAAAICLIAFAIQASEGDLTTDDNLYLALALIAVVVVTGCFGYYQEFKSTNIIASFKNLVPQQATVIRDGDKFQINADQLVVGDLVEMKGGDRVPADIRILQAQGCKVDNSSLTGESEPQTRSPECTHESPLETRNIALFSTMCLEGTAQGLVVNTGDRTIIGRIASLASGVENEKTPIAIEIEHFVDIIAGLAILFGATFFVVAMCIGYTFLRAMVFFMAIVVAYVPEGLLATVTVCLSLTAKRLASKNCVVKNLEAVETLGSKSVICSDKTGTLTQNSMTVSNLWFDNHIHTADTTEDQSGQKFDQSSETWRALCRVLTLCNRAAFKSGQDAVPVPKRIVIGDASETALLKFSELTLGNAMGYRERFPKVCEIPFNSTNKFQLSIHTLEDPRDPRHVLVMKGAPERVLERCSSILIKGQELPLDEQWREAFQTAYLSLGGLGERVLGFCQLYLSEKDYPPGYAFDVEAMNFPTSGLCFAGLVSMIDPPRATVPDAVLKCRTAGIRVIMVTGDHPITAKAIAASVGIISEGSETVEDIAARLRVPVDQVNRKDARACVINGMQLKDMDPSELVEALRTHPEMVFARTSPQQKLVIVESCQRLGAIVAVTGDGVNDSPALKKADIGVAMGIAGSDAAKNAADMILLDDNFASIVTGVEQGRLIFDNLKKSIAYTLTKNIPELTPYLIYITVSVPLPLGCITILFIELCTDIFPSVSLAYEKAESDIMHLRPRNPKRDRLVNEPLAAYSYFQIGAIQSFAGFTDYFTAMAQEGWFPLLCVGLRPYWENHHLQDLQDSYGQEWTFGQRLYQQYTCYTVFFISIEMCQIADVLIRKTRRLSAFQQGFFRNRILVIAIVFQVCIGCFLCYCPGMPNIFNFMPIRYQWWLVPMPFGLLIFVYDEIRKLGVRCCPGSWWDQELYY
# Sequence (P33704 whole entry partner): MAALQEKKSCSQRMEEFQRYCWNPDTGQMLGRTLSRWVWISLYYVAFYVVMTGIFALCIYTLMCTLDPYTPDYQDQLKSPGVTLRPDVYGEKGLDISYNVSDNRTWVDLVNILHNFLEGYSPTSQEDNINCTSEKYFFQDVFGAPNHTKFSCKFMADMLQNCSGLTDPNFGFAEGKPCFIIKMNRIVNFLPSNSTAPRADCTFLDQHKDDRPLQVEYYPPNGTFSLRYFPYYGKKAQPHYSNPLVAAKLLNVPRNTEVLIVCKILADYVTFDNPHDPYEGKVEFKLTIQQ
# test_details: Inhibition of (H^+ +K^+)-ATPase from Canine Gastric Mucosa
# particulars: canine gastric mucosa microsomes; pH 6.0; 30 min preincubation with compound at 37°; K^+-stimulated minus basal activity
Readings of IC50 for the listed molecules
Unit µM implied. Number only.

Some solved entries appear below for comparison.
O=[N+]([O-])c1ccc(-c2cnc3c(C[S+]([O-])c4nc5ccccc5[nH]4)cccn23)cc1 (stereo not drawn) [Example 33, hydrate]	17.5
Cc1cc2nc([S+]([O-])Cc3cccn4ccnc34)[nH]c2cc1C (stereo not drawn) [Example 15, hydrate]	4.8
COc1cc2nc([S+]([O-])Cc3cccn4ccnc34)[nH]c2cc1OC (stereo not drawn) [Example 17]	69
Cc1cnc2c(C[S+]([O-])c3nc4ccccc4[nH]3)cccn12 (stereo not drawn) [Example 25]	4
Cc1ccc(-c2cnc3c(C[S+]([O-])c4nc5ccccc5[nH]4)cccn23)cc1 (stereo not drawn) [Example 54]	3.2

Given the molecule [O-][S+](Cc1cccn2ccnc12)c1nc2cc(Cl)ccc2[nH]1 (stereo not drawn) [Example 19] , what is its reported IC50?
5

Bench note: what IC50 did [O-][S+](Cc1cccn2c(-c3cccc(C(F)(F)F)c3)cnc12)c1nc2ccccc2[nH]1 (stereo not drawn) [Example 36] show?
6.9

Endpoint output: IC50 of [O-][S+](Cc1cccn2ccnc12)c1nc2ccccc2[nH]1 (stereo not drawn) [Example 3, hydrate] . Value?
2.7

Given Cc1nc2c(C[S+]([O-])c3nc4ccccc4[nH]3)cccn2c1C (stereo not drawn) [Example 23] , state its recorded IC50.
6.2

Quick one: IC50 for COc1ccc2[nH]c([S+]([O-])Cc3cccn4ccnc34)nc2c1 (stereo not drawn) [Example 7] ?
8.5

Sample CCOc1ccc2[nH]c([S+]([O-])Cc3cccn4ccnc34)nc2c1 (stereo not drawn) [Example 9] — what was its IC50?
9.2

Form field: reported IC50 of COC(=O)c1ccc(-c2cnc3c(C[S+]([O-])c4nc5ccccc5[nH]4)cccn23)cc1 (stereo not drawn) [Example 49, hydrate]
7.8

Look at this molecule and give its reported IC50. Cc1cccc2[nH]c([S+]([O-])Cc3cccn4ccnc34)nc12 (stereo not drawn) [Example 11]
6.2

Return reported IC50; argument: [O-][S+](Cc1cccn2ccnc12)c1nc2cc(C(F)(F)F)ccc2[nH]1 (stereo not drawn) [Example 21]
3.4

# IC50 lookup, item [O-][S+](Cc1cccn2c(-c3cccc(C(F)(F)F)c3)cnc12)c1nc2cc(Cl)ccc2[nH]1 (stereo not drawn) [Example 42]
15.2

###

# system: (H^+ +K^+)-ATPase (Canis lupus familiaris, UniProt P50996)
# Construct: (H^+ +K^+)-ATPase obtained from canine gastric mucosa
# test_details: Inhibition of (H^+ +K^+)-ATPase from Canine Gastric Mucosa
# particulars: canine gastric mucosa microsomes; pH 6.0; 30 min preincubation with compound at 37°; K^+-stimulated minus basal activity
recorded_metric: pIC50
The meaning of pIC50 here: minus log10 of the concentration in molar units.

The cases that follow already have their pIC50 on record.
[O-][S+](Cc1cccn2c(-c3ccc(C(F)(F)F)cc3)cnc12)c1nc2cc(Cl)ccc2[nH]1 (stereo not drawn)	4.89
[O-][S+](Cc1cccn2c(-c3ccc(Cl)cc3)cnc12)c1nc2ccccc2[nH]1 (stereo not drawn)	5.26
Cc1ccc2[nH]c([S+]([O-])Cc3cccn4ccnc34)nc2c1 (stereo not drawn)	5.51

Requested field: pIC50. Item: Cc1ccc2[nH]c([S+]([O-])Cc3cccn4c(-c5cccc(C(F)(F)F)c5)cnc34)nc2c1 (stereo not drawn)
5.14

Would you kindly share the measured pIC50 for Cc1cn2cccc(C[S+]([O-])c3nc4ccccc4[nH]3)c2n1 (stereo not drawn) ?
5.17

Return reported pIC50; argument: [O-][S+](Cc1cccn2c(-c3ccc(C(F)(F)F)cc3)cnc12)c1nc2ccccc2[nH]1 (stereo not drawn)
5.13

Given [O-][S+](Cc1cccn2c(-c3ccccc3)cnc12)c1nc2ccccc2[nH]1 (stereo not drawn) [Example 30, hemihydrate] , state its recorded pIC50.
5.04
